Listed here: items and their measured pIC50.
system: MDA-MB-231; test: Cytotoxicity against human MDA-MB-231 cells assessed as decrease in cell viability after 72 hrs by SRB assay; format: functional, cell-based; settings: MDA-MB-231, 72 h
// pIC50 here means minus log10 of the molar concentration (mol/L)

[Q] Dear colleague, I am looking for the recorded pIC50 of the following compound: Nc1nc(=O)n([C@@H]2C(F)=C(CO)[C@@H](O)[C@H]2O)cc1I
[A] 4.10

[Q] Dear colleague, I am looking for the recorded pIC50 of the following compound: CC(C)OC(=O)[C@H](C)N[P@](=O)(OCC1=C(F)[C@@H](n2cnc3c(N)ncnc32)[C@H](O)[C@@H]1O)Oc1ccccc1
[A] 4.74

[Q] Dear colleague, I am looking for the recorded pIC50 of the following compound: Nc1ncnc2c1ncn2[C@@H]1C=C(CO)[C@@H](O)[C@H]1O
[A] 6.07

[Q] Dear colleague, I am looking for the recorded pIC50 of the following compound: O=c1nc(O)c(I)cn1[C@@H]1C(F)=C(CO)[C@@H](O)[C@H]1O
[A] 4.26

[Q] Dear colleague, I am looking for the recorded pIC50 of the following compound: O=c1nc(O)c(Br)cn1[C@@H]1C(F)=C(CO)[C@@H](O)[C@H]1O
[A] 4.36
